Each entry below carries its recorded IC50.
# tested system: recombinant human PREP (Homo sapiens, UniProt P48147)
# Construct: purchased R&D System
# Sequence (P48147 1-710): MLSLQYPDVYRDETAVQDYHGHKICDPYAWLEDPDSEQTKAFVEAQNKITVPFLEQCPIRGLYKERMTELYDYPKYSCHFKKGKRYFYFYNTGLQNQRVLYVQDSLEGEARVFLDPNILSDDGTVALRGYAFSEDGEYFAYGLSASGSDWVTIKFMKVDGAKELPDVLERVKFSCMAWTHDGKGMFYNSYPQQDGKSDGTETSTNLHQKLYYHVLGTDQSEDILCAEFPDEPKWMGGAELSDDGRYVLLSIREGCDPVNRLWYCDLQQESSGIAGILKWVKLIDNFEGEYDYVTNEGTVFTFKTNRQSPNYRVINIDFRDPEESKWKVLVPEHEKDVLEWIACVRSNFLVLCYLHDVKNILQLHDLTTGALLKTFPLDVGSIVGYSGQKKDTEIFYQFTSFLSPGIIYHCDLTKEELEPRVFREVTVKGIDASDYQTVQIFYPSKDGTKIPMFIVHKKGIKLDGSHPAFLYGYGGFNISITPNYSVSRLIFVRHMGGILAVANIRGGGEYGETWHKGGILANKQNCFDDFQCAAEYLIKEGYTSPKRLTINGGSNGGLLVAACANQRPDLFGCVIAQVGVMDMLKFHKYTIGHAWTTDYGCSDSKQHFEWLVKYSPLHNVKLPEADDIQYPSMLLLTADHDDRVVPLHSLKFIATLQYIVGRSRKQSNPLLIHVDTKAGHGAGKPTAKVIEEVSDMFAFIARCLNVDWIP
# run description: PREP inhibition, fluorogenic substrate Z-Gly-Pro-AMC
# Type: biochemical
# condition description: Inhibitory Activity (IC50, nM) PREP, recombinant human PREP
Output should be the measured figure followed by the unit it is expressed in.

chemical_smiles=N#C[C@@H]1C[C@H](F)CN1C(=O)CN1CCC(Nc2ccc(C(=O)Nc3cccnc3)c3ncccc23)CC1 result="597 nM"

Identify measured IC50 associated with N#C[C@@H]1C[C@H](F)CN1C(=O)CN1CCC(Nc2cccc3ncsc23)CC1
2000 nM

Identify measured IC50 associated with CCOc1ccc(NC2CCN(CC(=O)N3C[C@@H](F)C[C@H]3C#N)CC2)c2cccnc12
4910 nM

Identify measured IC50 associated with COc1cc(N[C@H]2CCN(CC(=O)N3CCC[C@H]3C#N)C2)c2cccnc2c1
6600 nM

Identify measured IC50 associated with Cc1cc(N[C@@H]2CCN(CC(=O)N3C[C@@H](F)C[C@H]3C#N)C2)cc2cccnc12
3020 nM

Identify measured IC50 associated with N#C[C@@H]1CCCN1C(=O)CN1CC[C@@H](Nc2cccc3ncc(Cl)cc23)C1
12200 nM

Identify measured IC50 associated with N#C[C@@H]1CCCN1C(=O)CN1CC[C@@H](Nc2ccc3ncccc3c2)C1
2610 nM

Identify measured IC50 associated with N#C[C@@H]1C[C@H](F)CN1C(=O)CN1CC[C@@H](Nc2ccc(OC(F)(F)F)c3ncccc23)C1
3590 nM

Identify measured IC50 associated with COc1cccc2c(OC3CCN(CC(=O)N4C[C@@H](F)C[C@H]4C#N)CC3)cc(C(F)(F)F)nc12
1410 nM

Identify measured IC50 associated with Cc1cc(N[C@H]2CCN(CC(=O)N3C[C@@H](F)C[C@H]3C#N)C2)cc2cccnc12
1230 nM

Identify measured IC50 associated with CN(c1ccc(F)c2ncccc12)[C@H]1CCN(CC(=O)N2C[C@@H](F)C[C@H]2C#N)C1
1720 nM

Identify measured IC50 associated with N#C[C@@H]1CCCN1C(=O)CN1CC[C@H](Nc2ccnc3c(C(F)(F)F)cccc23)C1
10900 nM

Identify measured IC50 associated with N#C[C@@H]1C[C@H](F)CN1C(=O)CN1CC[C@@H](Nc2ccc(C(F)(F)F)c3ncccc23)C1
3370 nM

Identify measured IC50 associated with COc1cc2c(NC3CCN(CC(=O)N4C[C@@H](F)C[C@H]4C#N)CC3)cccc2cn1
14200 nM

Identify measured IC50 associated with N#C[C@@H]1C[C@H](F)CN1C(=O)CN1CCC(Oc2cc(C(F)(F)F)nc3ccc(F)cc23)CC1
26500 nM

Identify measured IC50 associated with N#C[C@@H]1CCCN1C(=O)CN1CC[C@@H](Nc2cccc3ncccc23)C1
4250 nM
